ASSAY DETAILS: Biodistribution experiments in normal mice after i.v. injection
Assay type: in vivo
TEST CONDITIONS: male, ddY, mouse, in vivo, iv, total radioactivity, Biodistribution of radioactivity, Pancreas
Experimental: Experiments with animals were conducted in strict accordance with the Guidelines for the Care and Use of Laboratory Animals of Kanazawa University. […] Complete left femurs were isolated as representative bone samples, radioactivity was determined using gamma counters (AccuFLEX γ ARC-8001 in the case of ^18F, Hitachi, Ltd.), and background counts and physical decay were corrected during counting.
Where a SMILES comes first, the peptide text is derived from it. [ ]: non-standard residue; d: D form. The star is where a group is joined. DOTA = O=C(O)CN1CCN(CC(=O)O)CCN(CC(=O)*)CCN(CC(=O)O)CC1

{"MOLECULE": "O=C(O)CC[C@H](NC(=O)[C@H](CCC(=O)O)NC(=O)[C@H](CCC(=O)O)NC(=O)[C@H](CCC(=O)O)NC(=O)[C@H](CCC(=O)O)NC(=O)[C@H](CCC(=O)O)NC(=O)[C@H](CCC(=O)O)NC(=O)[C@H](CCC(=O)O)NC(=O)[C@H](CCC(=O)O)NC(=O)[C@H](CCC(=O)O)NC(=O)[C@H](CCC(=O)O)NC(=O)[C@H](CCC(=O)O)NC(=O)[C@H](CCC(=O)O)NC(=O)[C@H](CCC(=O)O)NC(=O)CN1CCN(CC(=O)O)CCN(CC(=O)O)CCN(CC(=O)O)CC1)C(=O)O [^67Ga-DOTA-(L-Glu)14, metal not drawn]", "tissue uptake dose at 10 min, %ID": 0.59}
{"MOLECULE": "O=C(O)C[C@@H](NC(=O)[C@@H](CC(=O)O)NC(=O)[C@@H](CC(=O)O)NC(=O)[C@@H](CC(=O)O)NC(=O)[C@@H](CC(=O)O)NC(=O)[C@@H](CC(=O)O)NC(=O)[C@@H](CC(=O)O)NC(=O)[C@@H](CC(=O)O)NC(=O)CN1CCN(CC(=O)O)CCN(CC(=O)O)CCN(CC(=O)O)CC1)C(=O)O [^67Ga-DOTA-(D-Asp)8, metal not drawn] ({DOTA}-[dD][dD][dD][dD][dD][dD][dD][dD]-OH)", "tissue uptake dose at 10 min, %ID": 0.57}

---

ASSAY DETAILS: Biodistribution experiments in normal mice after i.v. injection
Assay type: in vivo
TEST CONDITIONS: male, ddY, mouse, in vivo, iv, total radioactivity, Biodistribution of radioactivity, Bone (Femur)
Where a SMILES comes first, the peptide text is derived from it. [ ]: non-standard residue; d: D form. The star is where a group is joined. DOTA = O=C(O)CN1CCN(CC(=O)O)CCN(CC(=O)*)CCN(CC(=O)O)CC1

{"COMPOUND": "O=C(O)C[C@@H](NC(=O)[C@@H](CC(=O)O)NC(=O)[C@@H](CC(=O)O)NC(=O)[C@@H](CC(=O)O)NC(=O)[C@@H](CC(=O)O)NC(=O)[C@@H](CC(=O)O)NC(=O)[C@@H](CC(=O)O)NC(=O)[C@@H](CC(=O)O)NC(=O)CN1CCN(CC(=O)O)CCN(CC(=O)O)CCN(CC(=O)O)CC1)C(=O)O [^67Ga-DOTA-(D-Asp)8, metal not drawn] ({DOTA}-[dD][dD][dD][dD][dD][dD][dD][dD]-OH)", "UNIT TAG": "%ID", "tissue uptake dose at 3 h": 12.5}
{"COMPOUND": "O=C(O)CC[C@@H](NC(=O)[C@@H](CCC(=O)O)NC(=O)[C@@H](CCC(=O)O)NC(=O)[C@@H](CCC(=O)O)NC(=O)[C@@H](CCC(=O)O)NC(=O)[C@@H](CCC(=O)O)NC(=O)[C@@H](CCC(=O)O)NC(=O)[C@@H](CCC(=O)O)NC(=O)[C@@H](CCC(=O)O)NC(=O)[C@@H](CCC(=O)O)NC(=O)[C@@H](CCC(=O)O)NC(=O)[C@@H](CCC(=O)O)NC(=O)[C@@H](CCC(=O)O)NC(=O)[C@@H](CCC(=O)O)NC(=O)CN1CCN(CC(=O)O)CCN(CC(=O)O)CCN(CC(=O)O)CC1)C(=O)O [^67Ga-DOTA-(D-Glu)14, metal not drawn]", "UNIT TAG": "%ID", "tissue uptake dose at 3 h": 12.2}
{"COMPOUND": "O=C(O)C[C@@H](NC(=O)[C@@H](CC(=O)O)NC(=O)CN1CCN(CC(=O)O)CCN(CC(=O)O)CCN(CC(=O)O)CC1)C(=O)O [^67Ga-DOTA-(D-Asp)2, metal not drawn] ({DOTA}-[dD]-[dD]-OH)", "UNIT TAG": "%ID", "tissue uptake dose at 3 h": 0.49}
{"COMPOUND": "O=C(O)C[C@@H](NC(=O)[C@@H](CC(=O)O)NC(=O)[C@@H](CC(=O)O)NC(=O)[C@@H](CC(=O)O)NC(=O)[C@@H](CC(=O)O)NC(=O)CN1CCN(CC(=O)O)CCN(CC(=O)O)CCN(CC(=O)O)CC1)C(=O)O [^67Ga-DOTA-(D-Asp)5, metal not drawn] ({DOTA}-[dD][dD][dD][dD][dD]-OH)", "UNIT TAG": "%ID", "tissue uptake dose at 3 h": 2.8}

---

ASSAY DETAILS: Biodistribution experiments in normal mice after i.v. injection
Assay type: in vivo
TEST CONDITIONS: male, ddY, mouse, in vivo, iv, total radioactivity, Biodistribution of radioactivity, Stomach
Where a SMILES comes first, the peptide text is derived from it. [ ]: non-standard residue; d: D form. The star is where a group is joined. DOTA = O=C(O)CN1CCN(CC(=O)O)CCN(CC(=O)*)CCN(CC(=O)O)CC1
Overview of reported tissue uptake dose at 10 min across a group of compounds:
EXPERIMENTAL ENDPOINT: tissue uptake dose at 10 min (%ID)

{"COMPOUND": "O=C(O)CC[C@@H](NC(=O)[C@@H](CCC(=O)O)NC(=O)[C@@H](CCC(=O)O)NC(=O)[C@@H](CCC(=O)O)NC(=O)[C@@H](CCC(=O)O)NC(=O)[C@@H](CCC(=O)O)NC(=O)[C@@H](CCC(=O)O)NC(=O)[C@@H](CCC(=O)O)NC(=O)[C@@H](CCC(=O)O)NC(=O)[C@@H](CCC(=O)O)NC(=O)[C@@H](CCC(=O)O)NC(=O)[C@@H](CCC(=O)O)NC(=O)[C@@H](CCC(=O)O)NC(=O)[C@@H](CCC(=O)O)NC(=O)CN1CCN(CC(=O)O)CCN(CC(=O)O)CCN(CC(=O)O)CC1)C(=O)O [^67Ga-DOTA-(D-Glu)14, metal not drawn]", "EXPERIMENTAL ENDPOINT": "tissue uptake dose at 10 min", "VALUE REPORTED": 0.29}
{"COMPOUND": "O=C(O)CC[C@H](NC(=O)[C@H](CCC(=O)O)NC(=O)[C@H](CCC(=O)O)NC(=O)[C@H](CCC(=O)O)NC(=O)[C@H](CCC(=O)O)NC(=O)[C@H](CCC(=O)O)NC(=O)[C@H](CCC(=O)O)NC(=O)[C@H](CCC(=O)O)NC(=O)[C@H](CCC(=O)O)NC(=O)[C@H](CCC(=O)O)NC(=O)[C@H](CCC(=O)O)NC(=O)[C@H](CCC(=O)O)NC(=O)[C@H](CCC(=O)O)NC(=O)[C@H](CCC(=O)O)NC(=O)CN1CCN(CC(=O)O)CCN(CC(=O)O)CCN(CC(=O)O)CC1)C(=O)O [^67Ga-DOTA-(L-Glu)14, metal not drawn]", "EXPERIMENTAL ENDPOINT": "tissue uptake dose at 10 min", "VALUE REPORTED": 0.22}
{"COMPOUND": "O=C(O)C[C@@H](NC(=O)[C@@H](CC(=O)O)NC(=O)[C@@H](CC(=O)O)NC(=O)[C@@H](CC(=O)O)NC(=O)[C@@H](CC(=O)O)NC(=O)CN1CCN(CC(=O)O)CCN(CC(=O)O)CCN(CC(=O)O)CC1)C(=O)O [^67Ga-DOTA-(D-Asp)5, metal not drawn] ({DOTA}-[dD][dD][dD][dD][dD]-OH)", "EXPERIMENTAL ENDPOINT": "tissue uptake dose at 10 min", "VALUE REPORTED": 0.32}
{"COMPOUND": "O=C(O)C[C@@H](NC(=O)[C@@H](CC(=O)O)NC(=O)[C@@H](CC(=O)O)NC(=O)[C@@H](CC(=O)O)NC(=O)[C@@H](CC(=O)O)NC(=O)[C@@H](CC(=O)O)NC(=O)[C@@H](CC(=O)O)NC(=O)[C@@H](CC(=O)O)NC(=O)CN1CCN(CC(=O)O)CCN(CC(=O)O)CCN(CC(=O)O)CC1)C(=O)O [^67Ga-DOTA-(D-Asp)8, metal not drawn] ({DOTA}-[dD][dD][dD][dD][dD][dD][dD][dD]-OH)", "EXPERIMENTAL ENDPOINT": "tissue uptake dose at 10 min", "VALUE REPORTED": 0.34}
{"COMPOUND": "O=C(O)C[C@@H](NC(=O)[C@@H](CC(=O)O)NC(=O)CN1CCN(CC(=O)O)CCN(CC(=O)O)CCN(CC(=O)O)CC1)C(=O)O [^67Ga-DOTA-(D-Asp)2, metal not drawn] ({DOTA}-[dD]-[dD]-OH)", "EXPERIMENTAL ENDPOINT": "tissue uptake dose at 10 min", "VALUE REPORTED": 0.24}
